# credit: PubChem BioAssay (NCI)

- System: U251 CNS
Outcome field: choose from true (1) for active, false (0) for inactive

CCN(CC)C(=O)CCCCCn1c2ccccc2c2c3c(c4c5ccccc5[nH]c4c21)C(=O)N(O)C3=O
false (0)
Cc1nn2c(-c3nc4cc(Cl)c(Cl)cc4[nH]3)c(-c3ccc(F)cc3)nc2s1
false (0)
CCN(CC)C(=S)SSCCO
false (0)
Cc1cc(-c2ccco2)cc(C)c1/C=C/c1cncc(-c2nn[nH]n2)c1
false (0)
Cc1ccc(NC2=CC(=O)C(=O)c3ccccc32)c(C)c1
false (0)
CCN(CCNc1ccc(C)c2sc3cc(Cl)ccc3c(=O)c12)CC(C)(C)O
false (0)

Shift focus to the following entry.
Q. For COc1ncc2cc1NS(=O)(=O)c1cccc(c1)C(=O)NCC1=CC=C(S1)c1ncnc3c1SC2=C3C , what call appears in the results of this test?
A. true (1)

---

- System: SK-OV-3 ovarian
- protocol-text: NCI tumour cell line growth inhibition, 48 h
// log10 TGI lookup, one value per entry
Recorded TGI (log10, µM)

Q. Can you look up the measured log10 TGI of CCCCOc1ccc(S(=O)(=O)/N=C(\N)Nc2ccc(Cl)cc2)cc1 for me?
A. 1.54

Q. Also CCC1=C(c2ccc(OC)cc2)CC[C@]2(CCNC2=O)[C@@H]1C , if possible.
A. 1.99

Q. Next up: Cc1nn2c(-c3nc4cc(Cl)c(Cl)cc4[nH]3)c(-c3ccc(F)cc3)nc2s1
A. 0.65

Q. Another molecule: COc1ccc(C(=O)/C=C/c2ccc(OCc3ccccc3)c(OC)c2)cc1OC
A. 1.09

Q. Now the same for COC(=O)C1=Nc2ccc(F)cc2/C1=C/c1sc(=S)[nH]c1O
A. 1.50

---

- System: OVCAR-3 ovarian
- protocol-text: NCI tumour cell line growth inhibition, 48 h; in the data active = GI50 below about 0.43 µM; inactive = the rest
Please reply with one of these outcomes: active, inactive

Q. Hi team, can someone confirm the assay call for C=CC[PH+](c1ccccc1)c1ccccc1.C=CC[PH+](c1ccccc1)c1ccccc1.[Pt+2].[S-]c1ncccn1.[S-]c1ncccn1 ?
A. inactive

Q. Another compound: COc1cc(OC)c(/C=C/C(=O)c2c(N)cc(OC)cc2OC)c(OC)c1
A. active

---

- Test system: CCRF-CEM leukemia
- protocol-text: NCI tumour cell line growth inhibition, 48 h
Below is a list of entries, each paired with its recorded GI50 value.

Some solved cases for reference:
CC1(C)N=C(N)N=C(N)N1c1ccc(OCCCCNC(=O)Nc2cccc(S(=O)(=O)F)c2)c(Cl)c1
950 nM
CCN(CC)Cc1cc(Nc2cc(C(F)(F)F)c(C#N)c3nc4ccccc4n23)ccc1O
2790 nM
Cc1ccc(NC(=O)c2ccc(NC3=C(Cl)C(=O)N(Cc4ccccc4)C3=O)cc2)cc1Cl
1020 nM

Attention now turns to another entry.
Q. Name the reported GI50 value associated with the compound CCc1c(C#N)c(SC(C(N)=O)c2ccccc2)nc(N2CCC(N)CC2)c1C#N (centres undefined)
A. 15200 nM

---

Parameter TGI: see the listing below.
- Test system: NCI-H460 lung
- protocol-text: NCI tumour cell line growth inhibition, 48 h

Example results:
Nc1n[nH]c2ccc([C@@H]3Nc4c(F)cc5[nH]ncc5c4[C@H]4C5CCC(C5)[C@@H]34)cc12 (stereo not given in full)
> 31.9 µM
Cc1cc(C)c(S(=O)(=O)N(CCCN)OCCCN)c(C)c1
> 100 µM
Cn1cnnc1SC(F)(F)c1nc2ccccc2o1
> 100 µM
Fc1ccc(C(OCCN2CC3CC2CN3)c2ccc(F)cc2)cc1 (stereo not given)
> 100 µM
O=C(/C=C/c1ccc(Cl)cc1)c1ccc(Cl)s1
> 100 µM
NC(N)=N/N=C/c1c(-c2ccc(Cl)cc2)nc2sc(Cl)cn12
3.21 µM

Q. Recorded TGI for CC1=NN(C(=O)c2ccc(C)cc2)C(=O)C1N=Nc1ccccc1C(=O)O (stereo not given) , please?
A. > 100 µM

Q. Same question, CC1(CCCCO)C=CC(S(=O)(=O)c2ccccc2)CC1 (stereo not given) this time
A. 13.2 µM

Q. # repeat for CCOC(=O)[C@H]1Nc2c(cccc2[N+](=O)[O-])C2c3ccccc3CC21 (stereo not given in full)
A. > 100 µM

Q. Consider next the compound O=CC(O)C(O)C(OC1OC(CO)C(O)C(O)C1O)C(O)CO (stereo not given) (tested in a mixture with another compound) in the same way.
A. > 100 µM

---

- System: A549 NSCLC
- protocol-text: NCI tumour cell line growth inhibition, 48 h; in the data active = GI50 below about 0.43 µM; inactive = the rest
Your answer must be one of the following: T (active), F (inactive)

A selection of reference data follows.
Cc1ccc(O)cc1Nc1ccnc2cc(-c3ccccn3)ccc12
F
C=CC[PH+](c1ccccc1)c1ccccc1.C=CC[PH+](c1ccccc1)c1ccccc1.[Pt+2].[S-]c1ncccn1.[S-]c1ncccn1
F
Nc1c(C(=O)Nc2ccccn2)sc2nc3c(cc12)CCCCCC3
F
Cc1ccc(-c2nc(C(Cl)Cl)nc3cc(C)nn23)cc1
F
COc1cc2c3c(n(CCCN4CCSCC4)c(=O)c2cc1OC)-c1cc2c(cc1C3=O)OCO2
F
Cc1ccccc1CNc1c2ccccc2nc2ccccc12
F

As a next step, examine the compound that follows.
Q. Any idea what this test logged for Nc1n[nH]c2ccc([C@@H]3Nc4c(F)cc5[nH]ncc5c4[C@H]4C5CCC(C5)[C@@H]34)cc12 (stereo not given in full) ?
A. T

---

# GI50 per entry
- Test system: HS 578T breast
- protocol-text: NCI tumour cell line growth inhibition, 48 h

// known answers, use as guide
CCN(CC)CCCNc1c2ccc(Cl)cc2nc2ccc(OC)cc12
2.05 µM
CC/C(=C(/c1ccc(/C=C/C(=O)O)cc1)c1ccc2[nH]ncc2c1)c1ccc(F)cc1Cl
8.63 µM

Q. Give the measured GI50 of CCN(CC)C(=O)CCCCCn1c2ccccc2c2c3c(c4c5ccccc5[nH]c4c21)C(=O)N(O)C3=O .
A. 5.05 µM

Q. Record: C=C(C)[C@@H]1CC[C@]2(C(=O)n3ccnc3)CC[C@]3(C)[C@H](CC[C@@H]4[C@@]5(C)CCCNC(C)(C)[C@@H]5CC[C@]43C)[C@@H]12
A. 2.08 µM

---

- Tested on: OVCAR-4 ovarian
- protocol-text: NCI tumour cell line growth inhibition, 48 h
metric: TGI

Here is how some compounds turned out for TGI.
CC(C)=CC(=O)CC(=O)C(=O)NCCNC(=O)C(=O)CC(=O)C=C(C)C
> 50 µM
CC(=O)Nc1sccc1S(=O)(=O)c1ccc(Cl)cc1
> 100 µM
CN(C)CCNC(=O)c1cccc2cc3ccc4ccccc4c3nc12
0.752 µM
COc1cc(OC)c(/C=C/C(=O)c2c(N)cc(OC)cc2OC)c(OC)c1
> 100 µM
COC(=O)[C@]1(C)CCCC2(C)C3=C(CCC21)CC1(CC3)SCCS1 (stereo not given in full)
> 10 µM

Q. Which TGI value belongs to COc1cccc(/C=N/[N-]C(N)=O)c1[O-].[OH3+].[Pd+2] ?
A. > 100 µM

Q. Likewise for CCN(CC)C(=O)CCCCCn1c2ccccc2c2c3c(c4c5ccccc5[nH]c4c21)C(=O)N(O)C3=O ?
A. > 100 µM

Q. Cool, now COc1cccc(N2C(=O)C3CC(CC(C)(C)C)c4c([nH]c5ccccc45)C3C2=O)c1 (stereo not given)
A. > 10 µM

Q. Same thing, different compound: O=C1c2ccccc2-n2c1nc1ccc(Cl)cc1c2=O
A. > 100 µM

Q. One more compound: Cc1ccc(NC(=O)c2ccc(NC3=C(Cl)C(=O)N(Cc4ccccc4)C3=O)cc2)cc1Cl
A. 66.5 µM

---

Listed below: TGI values for each entry.
- Test system: HT29 colon
- protocol-text: NCI tumour cell line growth inhibition, 48 h

# annotated cases, reported TGI shown
COC1(c2ccccc2)NC(=S)NN=C1c1ccccc1 (stereo unspecified)
> 100 µM
Cn1cnnc1SC(F)(F)c1nc2ccccc2o1
> 100 µM
O=C(Nc1cccc(-n2cc(-c3ccncc3)c(-c3ccc(O)c(Cl)c3)n2)c1)Nc1ccc(Cl)c(Cl)c1
39 µM

Q. Field: TGI (HT29 colon). Entry: COC(=O)c1ccc2c(c1)C(=O)c1c-2n(CCCCl)c(=O)c2cc(OC)c(OC)cc12
A. > 100 µM

---

Each record here notes measured TGI.
- System: RXF-631 renal
- protocol-text: NCI tumour cell line growth inhibition, 48 h

CC1CCC2c3c([nH]c4ccccc34)C3C(=O)N(c4ccccc4)C(=O)C3C2C1 (configuration not stated)
> 250 µM
O=c1c2ccccc2n2cnc3ccc(NCCNCCO)c1c32
8.68 µM
Nc1nc(-c2ccccc2)cc(-c2cc(Cl)ccc2O)n1
> 100 µM
COC(=O)c1cc2ccccc2c2nc3ccccc3c(Cl)c12
> 100 µM
O=c1c2cccc3cccc(c4n1CCCN=4)c32
> 100 µM
O=c1[nH]c(=O)n(C2CC(O)C(O)C(CO)O2)cc1F (configuration not stated)
> 100 µM

Q. Request the reported TGI associated with O=S(=O)(Cc1ccccc1)SCc1ccccc1
A. 36.4 µM
